Biological target: Stat3 DNA-binding activity (Homo sapiens)
Construct: endogenous in cells; host or cells: HeLa cells (nuclear extract)
Sequence (P40763 whole entry): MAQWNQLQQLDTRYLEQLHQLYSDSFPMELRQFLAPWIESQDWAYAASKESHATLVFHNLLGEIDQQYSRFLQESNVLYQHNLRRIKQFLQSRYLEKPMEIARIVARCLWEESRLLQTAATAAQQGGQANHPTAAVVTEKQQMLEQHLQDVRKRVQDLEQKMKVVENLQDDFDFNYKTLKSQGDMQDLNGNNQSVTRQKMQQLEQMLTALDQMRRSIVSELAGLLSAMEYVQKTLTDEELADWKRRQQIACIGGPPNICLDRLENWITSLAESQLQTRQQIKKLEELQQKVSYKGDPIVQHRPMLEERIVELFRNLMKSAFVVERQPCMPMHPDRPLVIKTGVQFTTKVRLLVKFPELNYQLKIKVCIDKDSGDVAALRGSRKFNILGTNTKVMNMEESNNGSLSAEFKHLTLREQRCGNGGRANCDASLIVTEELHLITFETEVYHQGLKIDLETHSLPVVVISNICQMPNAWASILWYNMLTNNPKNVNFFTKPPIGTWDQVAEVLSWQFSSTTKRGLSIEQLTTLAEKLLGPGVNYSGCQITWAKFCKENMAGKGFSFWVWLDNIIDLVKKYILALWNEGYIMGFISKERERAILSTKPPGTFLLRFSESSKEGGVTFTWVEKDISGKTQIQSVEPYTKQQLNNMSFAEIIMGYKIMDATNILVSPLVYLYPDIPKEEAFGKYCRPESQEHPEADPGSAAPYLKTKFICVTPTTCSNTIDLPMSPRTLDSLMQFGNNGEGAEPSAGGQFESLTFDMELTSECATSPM
Assay: Stat3 DNA binding assay (EMSA), HeLa nuclear extract
Type: biochemical
Conditions: compound at 3 × MTT IC50, untreated Stat3 retarded band set as 100
Experimental: STAT3 DNA Binding Assay: Electrophoretic mobility shift assay (EMSA) was performed as described by the manufacturer (Li-Cor Biosciences, Lincoln, Nebr.). […] Bound antibody was then visualized by addition of TMB substrate (Pierce) and absorbance measured at 450 nm. Inhibition of Stat3 DNA-binding activity. […] Binding of Stat3 to the oligonucleotide was monitored by gel electrophoresis and detection using a LiCor Odyssey infrared scanner. […]
# inhibition % 3 × MTT IC50 >= 60% gives T, anything below gives F

Here's what some known entries look like.
Enquiry: Say whether CC(=O)c1oc2c(c1CBr)C(=O)c1ccccc1C2=O shows inhibition % 3 × MTT IC50 of 60% or more.
Return: T

Enquiry: Say whether O=C1c2ccccc2C(=O)c2oc(Cc3ccccc3)cc21 shows inhibition % 3 × MTT IC50 of 60% or more.
Return: F

***
Enquiry: Say whether CC(O)c1cc2c(o1)C(=O)c1ccccc1C2=O (stereo not drawn) shows inhibition % 3 × MTT IC50 of 60% or more.
Return: F

Enquiry: Say whether CCc1cc2c(o1)C(=O)c1cc(F)ccc1C2=O shows inhibition % 3 × MTT IC50 of 60% or more.
Return: F

Enquiry: Say whether C=Cc1cc2c(o1)C(=O)c1cc(F)ccc1C2=O shows inhibition % 3 × MTT IC50 of 60% or more.
Return: F

Enquiry: Say whether CC(=O)c1cc2c(o1)C(=O)c1cc(F)ccc1C2=O shows inhibition % 3 × MTT IC50 of 60% or more.
Return: T

Enquiry: Say whether CC(O)c1cc2c(o1)C(=O)c1cc(F)ccc1C2=O (stereo not drawn) shows inhibition % 3 × MTT IC50 of 60% or more.
Return: F

Enquiry: Say whether O=C(c1ccccc1)c1cc2c(s1)C(=O)c1ccccc1C2=O shows inhibition % 3 × MTT IC50 of 60% or more.
Return: F

Enquiry: Say whether O=C1c2ccccc2C(=O)c2oc(C(O)c3ccccc3)cc21 (stereo not drawn) shows inhibition % 3 × MTT IC50 of 60% or more.
Return: F
